test: Human HepG2 cell viability assay in 384 well format; format: toxicity, cell-based; design: dose 125 nL, time 70.5 hour; concentration not given beside the values; conditions: HepG2 cells, read-out: Inhibition
Quick reference: cytotoxicity at 70.5 h of the listed items.
readout label: cytotoxicity at 70.5 h (%)

> print(dat)
                                    molecule           readout.label  data.value
 1   CCC(CC)(CNC(=O)OC(C)(C)C)NC(=O)C1CCOCC1  cytotoxicity at 70.5 h       -5.37
 2    CC(=O)N1CCC(Cc2cnc(Nc3cc(C)on3)cn2)CC1  cytotoxicity at 70.5 h       -4.74
 3         CCOc1cc(CN(C)CCC(=O)OC)ccc1OC(F)F  cytotoxicity at 70.5 h       -2.34
 4   Cn1ccc(-c2cc(C(=O)N3CCCCC3)c3ccccn23)n1  cytotoxicity at 70.5 h        4.75
 5           COCCC(=O)N(Cc1ccccn1)Cc1ccccc1C  cytotoxicity at 70.5 h        7.25
 6  Cc1noc(C(C)C)c1C(=O)NCC(c1ccsc1)N(C)C (configuration not stated)  cytotoxicity at 70.5 h        4.78
 7  Cc1csc(CNC(=O)NC(C)c2ccc3c(c2)OCCO3)n1 (configuration not stated)  cytotoxicity at 70.5 h        5.07
 8  CC(C)N1CCCC(C(=O)NC(C)(C)c2nnc(N)s2)C1 (configuration not stated)  cytotoxicity at 70.5 h       -12.2
 9  O=C(C1CCC1)N1C[C@@H]2CCN(c3cccnc3)C[C@@H]2C1  cytotoxicity at 70.5 h          30
10     CS(=O)(=O)c1ccc(C(=O)NCCNc2ncccn2)cc1  cytotoxicity at 70.5 h       -12.6
11          Cn1cc(C(=O)N2CCOc3ccccc32)ccc1=O  cytotoxicity at 70.5 h       -12.6
12  COc1ccc(NC(=O)N2CCCCC2c2ncc[nH]2)cc1 (configuration not stated)  cytotoxicity at 70.5 h        -7.7

###

assay: Human HepG2 cell viability assay in 384 well format; format: toxicity, cell-based; design: dose 125 nL, time 70.5 hour; concentration not given beside the values; settings: HepG2 cells, read-out: Inhibition
readout label: cytotoxicity at 70.5 h

> print(dat)
                                   molecule  data.value
1     CCN1C(=O)C2(CCN(CCN(C)C)CC2)c2ccccc21       19.9%
2   O=C(NCc1cccnc1N1CCc2ccccc2C1)c1cnc[nH]1      -10.2%
3  CC(C)N(CC1CCCN(CC(N)=O)C1)C(=O)OC(C)(C)C (stereo unspecified)      -12.8%
4  COCCOc1ncccc1C(=O)N1CCCCC1c1nccs1 (stereo unspecified)      -3.02%
5  CC(C)C(=O)N1CC[C@H]2N(C)CC[C@@]2(C(=O)N2CCOCC2)CC1       2.86%
6  CSCC(CCO)NC(=O)Nc1cc(Br)ccc1C (stereo unspecified)      -3.57%

###

Quick reference: cytotoxicity at 70.5 h of the listed items.
assay: Human HepG2 cell viability assay in 384 well format; type: toxicity, cell-based; parameters: dose 125 nL, time 70.5 hour; concentration not given beside the values; conditions: HepG2 cells, read-out: Inhibition
readout label: cytotoxicity at 70.5 h (%)

> print(dat)
                                   compound  unit.tag  data.value
1  CCc1nc(CN(C)C2CCN(CCS(C)(=O)=O)C2)no1 (stereo unspecified)         %        2.72
2  CNCCNc1ccc(-c2nc(-c3cccc(OC)c3OC)no2)cn1         %       -2.42
3            COCCN(Cc1ccoc1)C(=O)c1ccccc1Cl         %        6.96
4  CC(C(=O)N1CCCCCC1)N1CCN(c2nccs2)CC1 (stereo unspecified)         %        19.7
5  CCc1nc2ccccc2n1C(CC)C(=O)N(C)Cc1noc(C)n1 (stereo unspecified)         %       -19.8
6  CCC[C@@H]1CN(Cc2c[nH]c(CC3CCCC3)n2)C[C@H]1C(=O)O         %        -7.4

###

assay: Human HepG2 cell viability assay in 384 well format; format: toxicity, cell-based; design: dose 125 nL, time 70.5 hour; concentration not given beside the values; conditions: HepG2 cells, read-out: Inhibition
readout label: cytotoxicity at 70.5 h (%)

> print(dat)
                                    compound           readout.label  data.value
 1         O=C(NCCc1ccccn1)N1CCSC2(CCCCC2)C1  cytotoxicity at 70.5 h        1.93
 2  CC(Cn1cccn1)NC(=O)N1CCN(Cc2cccnc2)CC1 (centres undefined)  cytotoxicity at 70.5 h       -7.03
 3  Cc1nc(C2CCCN(C(=O)c3ccoc3)C2)no1 (centres undefined)  cytotoxicity at 70.5 h          -7
 4  O=C(Nc1ccc(F)cc1)N1C[C@H]2CC[C@@H]1CN(Cc1cccnc1)C2  cytotoxicity at 70.5 h       -3.12
 5  NC(=O)CN1CCC(C(=O)NCc2nc(-c3ccc(F)cc3)cs2)CC1  cytotoxicity at 70.5 h      -0.391
 6  COc1ccc(NC(=O)N2CCC(CSC)C2)cc1C (centres undefined)  cytotoxicity at 70.5 h        2.45
 7         O=C(Cn1ccc(=O)cc1)NCc1ccc2sccc2c1  cytotoxicity at 70.5 h       -7.85
 8  CCCc1noc(CCC(=O)N2CCCC2c2cccs2)n1 (centres undefined)  cytotoxicity at 70.5 h       -2.53
 9  CC(C)NC(=O)N1CCC(c2nnc3ccc(C(=O)N(C)C)cn23)C1 (centres undefined)  cytotoxicity at 70.5 h       -1.02
10  CCc1ccc(O)c(C(=O)N2CCN(CC(=O)N(CC)CC)CC2)c1  cytotoxicity at 70.5 h        1.25
11          CCc1ccsc1C(=O)NCCn1nc2ccccn2c1=O  cytotoxicity at 70.5 h       -5.41
12  Cc1c[nH]nc1C1CCN(C(=O)CC2CCCC2)C1 (centres undefined)  cytotoxicity at 70.5 h       -6.41
13  COC1(CNC(=O)c2ccc3nsnc3c2)CCSC1 (centres undefined)  cytotoxicity at 70.5 h       -18.3
14  COc1ccc(CNC(C)c2cccc(Cl)c2)c(OC)c1OC (centres undefined)  cytotoxicity at 70.5 h      -0.149
15       CNC(=O)Cn1cc(C#N)c(=O)c2cc(Br)ccc21  cytotoxicity at 70.5 h       -3.12
16  Cc1cccc(-c2ccc(C(=O)NCCN(C)C3CC3)c(=O)[nH]2)c1  cytotoxicity at 70.5 h       -34.3
17     CCOCc1ccc(NCc2cnc(N3CCN(C)CC3)nc2)cc1  cytotoxicity at 70.5 h       -3.75
18  COc1ccc(F)c(CN(CCCn2ccnc2)Cc2ccc(C)s2)c1  cytotoxicity at 70.5 h        45.5
19   Cc1noc(CN(Cc2ccc3c(c2)OCCO3)Cc2ccco2)n1  cytotoxicity at 70.5 h       -3.69
20      O=C(NCCn1cnc(C2CCCC2)cc1=O)NCc1cccs1  cytotoxicity at 70.5 h       -7.11
21  COc1coc(CN2CCCC(CCc3ccccc3F)C2)cc1=O (centres undefined)  cytotoxicity at 70.5 h        16.9
22  CC(C)S(=O)(=O)N1CCC(Cc2cccc(C(=O)O)c2)C1 (centres undefined)  cytotoxicity at 70.5 h       -4.82
23  Cc1cccc(CN2CCc3c(COCC(=O)N(C)C)nn(C)c3C2)n1  cytotoxicity at 70.5 h       0.676
24  O=C(NCc1nc(C2CC2)no1)N1CCOC(c2ccccc2F)C1 (centres undefined)  cytotoxicity at 70.5 h        -3.4

###

Quick reference: cytotoxicity at 70.5 h of the listed items.
test: Human HepG2 cell viability assay in 384 well format; format: toxicity, cell-based; parameters: dose 125 nL, time 70.5 hour; concentration not given beside the values; conditions: HepG2 cells, read-out: Inhibition
readout label: cytotoxicity at 70.5 h (%)

> print(dat)
                                   molecule  data.value
1        NC(=O)c1cnn2c(C3CCN(CCO)CC3)ccnc12       -3.75
2   CCOc1ccc(C(=O)CCC(=O)N(C)Cc2snnc2C)cc1C       -7.49
3  Cc1noc(C)c1CC(=O)N1CCCC(Cc2ccccn2)C1 (stereo unspecified)       -7.69
4  COCC(O)CN1CCC(NC(=O)c2cscc2C)CC1 (stereo unspecified)        3.56
5  CCN1CC(O)CN(C(=O)c2ccc(SC)cc2)CC1=O (stereo unspecified)       -4.25
6  CSCC(C)(O)CNS(=O)(=O)c1ccc(Br)cc1 (stereo unspecified)        23.8
